assaySummary: Lipophilicity, log D of the compound at pH 7.4 by HPLC analysis
Assay type: physicochemical
runParameters: buffer
Use 3 as the dividing line for logD, with the line itself on the t side and lower values as f.

INSERT INTO measurements (compound, label) VALUES
  ('Cc1cc(OCC2(C)COC2)cc(C)c1-c1cccc(COc2ccc3c(c2)OCC3CC(=O)O)c1 (racemic)', 't'),
  ('Cc1cc(OCc2cccc3nccn23)cc(C)c1-c1cccc(COc2ccc3c(c2)OC[C@H]3CC(=O)O)c1', 't'),
  ('Cc1cc(OCC2(C)COC2)cc(C)c1-c1cccc(COc2ccc3c(c2)OC[C@@H]3CC(=O)O)c1', 't');

In: Determine whether this compound has logD no lower than 3: Cc1cc(OCCCN2CCCC2=O)cc(C)c1-c1cccc(COc2ccc3c(c2)OC[C@H]3CC(=O)O)c1
Out: t

In: Determine whether this compound has logD no lower than 3: Cc1cc(OC2CCS(=O)(=O)CC2)cc(C)c1-c1cccc(COc2ccc3c(c2)OCC3CC(=O)O)c1 (racemic)
Out: f

In: Determine whether this compound has logD no lower than 3: Cc1c(C)c(-c2cccc(COc3ccc4c(c3)OC[C@H]4CC(=O)O)c2)c(C)c(C)c1OC1CCS(=O)(=O)CC1
Out: t

In: Determine whether this compound has logD no lower than 3: Cc1cc(OCC2(O)CCS(=O)(=O)CC2)cc(C)c1-c1cccc(COc2ccc3c(c2)OC[C@H]3CC(=O)O)c1
Out: f

In: Determine whether this compound has logD no lower than 3: Cc1nc(C)c(COc2cc(C)c(-c3cccc(COc4ccc5c(c4)OC[C@H]5CC(=O)O)c3)c(C)c2)s1
Out: t

In: Determine whether this compound has logD no lower than 3: Cc1c(Cl)c(OCCCS(C)(=O)=O)c(Cl)c(C)c1-c1cccc(COc2ccc3c(c2)OC[C@H]3CC(=O)O)c1
Out: t

In: Determine whether this compound has logD no lower than 3: CCc1cc(OCCCS(C)(=O)=O)cc(CC)c1-c1cccc(COc2ccc3c(c2)OC[C@H]3CC(=O)O)c1
Out: t

In: Determine whether this compound has logD no lower than 3: CCS(=O)(=O)CCOc1cc(C)c(-c2cccc(COc3ccc4c(c3)OC[C@H]4CC(=O)O)c2)c(C)c1
Out: f

In: Determine whether this compound has logD no lower than 3: Cc1cc(OC2CCS(=O)(=O)CC2)cc(C)c1-c1cccc(COc2ccc3c(c2)OC[C@H]3CC(=O)O)c1
Out: f

In: Determine whether this compound has logD no lower than 3: Cc1cc(OC2CCS(=O)(=O)CC2)cc(C)c1-c1cccc(COc2ccc3c(c2)OC[C@@H]3CC(=O)O)c1
Out: f

In: Determine whether this compound has logD no lower than 3: Cc1c(C)c(-c2cccc(COc3ccc4c(c3)OC[C@H]4CC(=O)O)c2)c(C)c(C)c1OCCCS(C)(=O)=O
Out: t

In: Determine whether this compound has logD no lower than 3: Cc1cc(OCCCS(C)(=O)=O)cc(C)c1-c1cccc(COc2ccc3c(c2)OC[C@H]3CC(=O)O)c1
Out: f
